- TEST_TARGET: p300 HAT domain (residues 1287-1666) (Homo sapiens (Human), UniProt Q09472)
- Sequence (Q09472 1287-1666): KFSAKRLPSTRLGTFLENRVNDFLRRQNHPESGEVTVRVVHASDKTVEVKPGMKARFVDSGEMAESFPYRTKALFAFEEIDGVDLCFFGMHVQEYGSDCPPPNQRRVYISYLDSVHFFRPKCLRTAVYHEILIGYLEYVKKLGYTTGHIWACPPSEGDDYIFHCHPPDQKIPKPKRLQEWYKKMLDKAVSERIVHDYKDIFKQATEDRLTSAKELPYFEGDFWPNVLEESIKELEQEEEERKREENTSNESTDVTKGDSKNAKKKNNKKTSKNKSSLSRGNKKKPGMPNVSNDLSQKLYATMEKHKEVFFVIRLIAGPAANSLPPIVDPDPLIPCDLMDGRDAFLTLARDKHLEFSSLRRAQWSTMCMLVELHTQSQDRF
- EXPERIMENTAL_PROTOCOL: p300 HAT SPA assay (scintillation proximity assay, acetylation of biotinylated H3(1-21) peptide)
- Assay type: biochemical
- STATED_CONDITIONS: p300 HAT domain; average of at least 2 replicate titrations; read-out: P300 HAT SPA IC50
- Protocol: In a typical experiment the p300 HAT inhibitory activity of the compounds described herein was determined in accordance with the following experimental method. The expressed protein was purified by Ni2+ affinity, followed by anion exchange chromatography. […] 35 μL of the reaction volume was transferred to a 384-well streptavidin FlashPlate (PerkinElmer) using a Bravo liquid handler (Velocity 11) and incubated for 1.5 hr at RT. […] Data were analyzed in Genedata to determine inhibitor IC50 values.
MEASURED_PROPERTY: pIC50
pIC50 is defined as minus the log10 of a concentration measured in mol/L.

Consider the reported pIC50 for these molecules:
CCNC(=O)c1ccc2c(C(=O)[C@@H](NCCc3ccc(C#N)cc3)c3ccccc3)c[nH]c2c1 (single isomer, unassigned) [146 Isomer 2]; 7.59
N#Cc1ccc(CCNC(C(=O)c2c[nH]c3cc(-n4ccnc4)ccc23)c2ccccc2)cc1 (single isomer, unassigned) [120 Isomer 2]; 6.76

Proceed to the following item.
Exam item: Query pIC50 on p300 HAT domain (residues 1287-1666) (Homo sapiens (Human), UniProt Q09472) for Cn1cc(-c2ccc3c(C(=O)C(NCCc4ccc(F)cc4F)c4ccccc4)c[nH]c3c2)cn1 (single isomer, unassigned) [85 Isomer 2]
Marked response: 6.08

###

Below, each of the compounds is paired with its reported IC50 value.
- TEST_TARGET: p300 HAT domain (residues 1287-1666) (Homo sapiens (Human))
- EXPERIMENTAL_PROTOCOL: p300 HAT SPA assay (scintillation proximity assay, acetylation of biotinylated H3(1-21) peptide)
- Format: biochemical
- STATED_CONDITIONS: p300 HAT domain; average of at least 2 replicate titrations; read-out: P300 HAT SPA IC50

Here is how some compounds turned out for IC50.
CC(NCCc1ccc(Cl)cc1)C(=O)c1c[nH]c2ccccc12 (single isomer, unassigned) [23 Isomer 2]; > 60000 nM
O=C(c1c[nH]c2ccccc12)[C@@H](NCCc1ccc(-c2nnc[nH]2)cc1)c1ccccc1 (single isomer, unassigned) [186 Isomer 1]; 1970 nM
CN1CCN(c2ccc3c(C(=O)C(NCCc4ccc(C#N)cc4)c4ccccc4)c[nH]c3c2)CC1 (single isomer, unassigned) [122 Isomer 1]; 325 nM
COc1cccc(CCNC(C(=O)c2c[nH]c3ccccc23)c2ccccc2)c1 (single isomer, unassigned) [7 Isomer 2]; 5140 nM
O=C(c1c[nH]c2cc(-c3cccnc3)ccc12)C(NCCc1ccc(Cl)cc1)c1ccccc1 (single isomer, unassigned) [90 Isomer 1]; 967 nM

Exam item: Item NS(=O)(=O)c1ccc(CCNC(C(=O)c2c[nH]c3cnccc23)c2ccccc2)cc1 (single isomer, unassigned) [32 Isomer 2] has what recorded IC50?
Marked response: 12900 nM

Exam item: # input compound: Cn1cc(-c2ccc3c(C(=O)C(NCCc4ccc(C#N)cc4Cl)c4ccccc4)c[nH]c3c2)cn1 (single isomer, unassigned) [72 Isomer 1] ; wanted: its IC50
Marked response: 733 nM

Exam item: Quick one: IC50 of CC(=O)N1CCC(c2ccc3c(C(=O)C(NCCc4ccc(Cl)cc4)c4ccccc4)c[nH]c3c2)CC1 (single isomer, unassigned) [65 Isomer 2] ?
Marked response: 422 nM

###

- TEST_TARGET: p300 HAT domain (residues 1287-1666) (Homo sapiens (Human))
- EXPERIMENTAL_PROTOCOL: p300 HAT SPA assay (scintillation proximity assay, acetylation of biotinylated H3(1-21) peptide)
- Format: biochemical
- STATED_CONDITIONS: p300 HAT domain; average of at least 2 replicate titrations; read-out: P300 HAT SPA IC50
MEASURED_PROPERTY: pIC50
Please report pIC50 as the negative decimal logarithm of the molar concentration, giving only the number.

Cn1cc(-c2ccc3c(C(=O)C(NCCc4ccc(C(=O)O)cc4Cl)c4ccccc4)c[nH]c3c2)cn1 (single isomer, unassigned) [142 Isomer 2]; 7.09

Exam item: Form field: reported pIC50 of CC(CNC(C(=O)c1c[nH]c2ccccc12)c1ccccc1)c1ccc(Cl)cc1 (single isomer, unassigned) [26 Isomer 3]
Marked response: 5.42

Exam item: // lookup pIC50 for Cn1cc(-c2ccc3c(C(=O)[C@@H](NCCc4ccc(N)nc4)c4ccccc4)c[nH]c3c2)cn1 (single isomer, unassigned) [187 Isomer 2]
Marked response: 6.10

Exam item: // pIC50 lookup, key: N#Cc1ccc(CCNC(C(=O)c2c[nH]c3cc(C(=O)NCC(F)(F)F)ccc23)c2ccccc2)cc1 (single isomer, unassigned) [157 Isomer 1]
Marked response: 5.92

Exam item: Quick check: pIC50 of Cn1cc(-c2ccc3c(C(=O)C(NCCc4ccc(S(N)(=O)=O)cc4)c4ccccc4)cnn3c2)cn1 (single isomer, unassigned) [101 Isomer 2] ?
Marked response: 7.23

###

full length p300 (Homo sapiens (Human), UniProt Q09472): recorded IC50 for assorted compounds
Sequence (Q09472 whole entry): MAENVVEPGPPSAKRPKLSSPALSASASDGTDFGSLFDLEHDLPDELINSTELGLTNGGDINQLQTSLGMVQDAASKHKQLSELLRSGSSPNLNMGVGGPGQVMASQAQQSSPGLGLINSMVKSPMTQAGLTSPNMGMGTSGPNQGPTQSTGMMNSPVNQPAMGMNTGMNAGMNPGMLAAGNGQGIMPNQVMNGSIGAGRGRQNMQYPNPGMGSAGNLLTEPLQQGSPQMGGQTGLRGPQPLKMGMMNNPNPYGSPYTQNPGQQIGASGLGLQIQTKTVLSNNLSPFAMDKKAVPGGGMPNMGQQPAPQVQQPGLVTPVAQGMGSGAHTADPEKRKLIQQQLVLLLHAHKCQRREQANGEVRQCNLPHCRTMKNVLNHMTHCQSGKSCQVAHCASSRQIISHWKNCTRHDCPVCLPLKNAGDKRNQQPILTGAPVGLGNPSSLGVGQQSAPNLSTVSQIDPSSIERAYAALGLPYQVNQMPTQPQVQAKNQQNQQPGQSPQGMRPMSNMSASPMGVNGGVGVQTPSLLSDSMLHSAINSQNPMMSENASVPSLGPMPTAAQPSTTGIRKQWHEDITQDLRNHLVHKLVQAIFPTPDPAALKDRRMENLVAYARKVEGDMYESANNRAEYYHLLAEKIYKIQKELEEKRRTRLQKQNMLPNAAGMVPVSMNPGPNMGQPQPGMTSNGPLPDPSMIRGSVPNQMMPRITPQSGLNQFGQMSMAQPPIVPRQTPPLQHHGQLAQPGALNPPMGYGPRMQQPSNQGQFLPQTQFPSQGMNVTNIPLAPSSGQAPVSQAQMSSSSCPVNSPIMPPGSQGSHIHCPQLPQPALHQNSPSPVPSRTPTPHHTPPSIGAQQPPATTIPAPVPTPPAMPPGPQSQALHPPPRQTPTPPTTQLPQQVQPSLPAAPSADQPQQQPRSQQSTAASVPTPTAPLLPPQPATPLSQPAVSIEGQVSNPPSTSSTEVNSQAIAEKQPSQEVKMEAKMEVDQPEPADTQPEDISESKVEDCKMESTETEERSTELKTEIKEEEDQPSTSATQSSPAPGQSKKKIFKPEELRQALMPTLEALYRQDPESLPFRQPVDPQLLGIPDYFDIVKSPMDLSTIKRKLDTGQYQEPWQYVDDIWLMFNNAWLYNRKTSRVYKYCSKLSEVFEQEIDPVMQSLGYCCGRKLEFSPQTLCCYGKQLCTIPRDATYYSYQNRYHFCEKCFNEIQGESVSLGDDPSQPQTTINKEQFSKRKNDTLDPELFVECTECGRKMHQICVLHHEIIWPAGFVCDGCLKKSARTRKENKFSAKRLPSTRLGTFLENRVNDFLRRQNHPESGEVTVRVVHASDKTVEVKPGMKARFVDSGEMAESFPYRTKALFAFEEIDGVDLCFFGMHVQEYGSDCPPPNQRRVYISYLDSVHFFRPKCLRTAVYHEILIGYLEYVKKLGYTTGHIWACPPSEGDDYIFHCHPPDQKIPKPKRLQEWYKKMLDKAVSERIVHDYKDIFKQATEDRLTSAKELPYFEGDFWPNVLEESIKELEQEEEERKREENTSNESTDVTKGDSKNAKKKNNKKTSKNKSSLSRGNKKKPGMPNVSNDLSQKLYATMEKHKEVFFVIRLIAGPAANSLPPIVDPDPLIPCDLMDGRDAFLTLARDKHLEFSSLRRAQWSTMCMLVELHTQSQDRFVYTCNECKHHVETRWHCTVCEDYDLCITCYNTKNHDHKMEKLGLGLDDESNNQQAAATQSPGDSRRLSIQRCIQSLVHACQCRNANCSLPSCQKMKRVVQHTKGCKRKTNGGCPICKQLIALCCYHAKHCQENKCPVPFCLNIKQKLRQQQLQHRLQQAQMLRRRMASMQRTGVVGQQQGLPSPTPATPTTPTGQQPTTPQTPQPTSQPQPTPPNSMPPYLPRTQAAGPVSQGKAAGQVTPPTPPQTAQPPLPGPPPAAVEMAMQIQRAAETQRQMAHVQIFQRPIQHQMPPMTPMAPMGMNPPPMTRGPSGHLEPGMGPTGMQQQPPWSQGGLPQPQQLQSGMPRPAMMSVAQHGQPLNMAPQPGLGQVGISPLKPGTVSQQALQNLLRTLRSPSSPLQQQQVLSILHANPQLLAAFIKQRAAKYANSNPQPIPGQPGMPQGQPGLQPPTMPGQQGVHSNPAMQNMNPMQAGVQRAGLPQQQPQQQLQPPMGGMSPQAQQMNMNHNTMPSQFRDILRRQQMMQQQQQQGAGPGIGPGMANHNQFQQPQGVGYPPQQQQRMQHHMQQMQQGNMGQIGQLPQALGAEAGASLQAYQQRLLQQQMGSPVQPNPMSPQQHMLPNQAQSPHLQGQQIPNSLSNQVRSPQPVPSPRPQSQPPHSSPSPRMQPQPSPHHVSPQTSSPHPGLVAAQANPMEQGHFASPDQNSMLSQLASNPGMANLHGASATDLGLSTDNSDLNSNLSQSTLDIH

Solved entries (count: 5):
O=C(c1c[nH]c2cc(-c3ccccn3)ccc12)C(NCCc1ccc(F)cc1)c1ccccc1 (single isomer, unassigned) [105 Isomer 2]; 25.1 nM
COc1ccc(CCNC(C(=O)c2c[nH]c3ccccc23)c2ccccc2)cc1 (single isomer, unassigned) [8 Isomer 2]; 27.7 nM
COCCNC(=O)c1ccc2c(C(=O)C(NCCc3ccc(Cl)cc3Cl)c3ccccc3)c[nH]c2c1 (single isomer, unassigned) [154 Isomer 1]; 37.7 nM
NS(=O)(=O)c1ccc(CCNC(C(=O)c2c[nH]c3ncccc23)c2ccccc2)cc1 (single isomer, unassigned) [33 Isomer 1]; 1750 nM
O=C(c1n[nH]c2ccccc12)C(NCCc1ccc(Cl)cc1)c1ccccc1 (single isomer, unassigned) [47 Isomer 1]; 1310 nM

Exam item: # get_value(readout='IC50', item= O=C(O)c1ccc(CCNC(C(=O)c2c[nH]c3ccccc23)c2ccccc2)cc1 (single isomer, unassigned) [132 Isomer 1] )
Marked response: 63.3 nM

Exam item: I am curious: what IC50 value has been reported for CNC(=O)Cc1ccc2c(C(=O)C(NCCc3ccc(C#N)cc3)c3ccccc3)c[nH]c2c1 (single isomer, unassigned) [62 Isomer 1] ?
Marked response: 37.2 nM

###

- TEST_TARGET: p300 HAT domain (residues 1287-1666) (Homo sapiens (Human), UniProt Q09472)
- EXPERIMENTAL_PROTOCOL: p300 HAT SPA assay (scintillation proximity assay, acetylation of biotinylated H3(1-21) peptide)
- Format: biochemical
- STATED_CONDITIONS: p300 HAT domain; average of at least 2 replicate titrations; read-out: P300 HAT SPA IC50
MEASURED_PROPERTY: IC50 (µM)
Return type: number; implicit unit µM.

Below: 2 compounds and their reported IC50.
Cn1cc(-c2ccc3c(C(=O)C(NCCc4ccc(C(N)=O)cc4)c4ccccc4)cnn3c2)cn1 (single isomer, unassigned) [179 Isomer 2]; 0.248
NS(=O)(=O)c1ccc(CCNC(C(=O)c2c[nH]c3ncccc23)c2ccccc2)cc1 (single isomer, unassigned) [33 Isomer 2]; 10

Exam item: Please provide the recorded IC50 for CCNc1ccc(CCNC(C(=O)c2c[nH]c3ccccc23)c2ccccc2)cn1 (single isomer, unassigned) [53 Isomer 2] , tested on p300 HAT domain (residues 1287-1666) (Homo sapiens (Human), UniProt Q09472).
Marked response: 4.29

###

- TEST_TARGET: p300 HAT domain (residues 1287-1666) (Homo sapiens (Human))
- EXPERIMENTAL_PROTOCOL: p300 HAT SPA assay (scintillation proximity assay, acetylation of biotinylated H3(1-21) peptide)
- Assay type: biochemical
- STATED_CONDITIONS: p300 HAT domain; average of at least 2 replicate titrations; read-out: P300 HAT SPA IC50
Examples of compounds with documented pIC50 follow.
Interpret pIC50 as the negative base-10 log of the concentration measured in mol/L.

These recorded examples may help you get a feel for the data.
CC(C)(O)CNC(=O)c1ccc2c(C(=O)C(NCCc3ccc(C#N)cc3)c3ccccc3)c[nH]c2c1 (single isomer, unassigned) [161 Isomer 2]; 7.02
O=C(c1c[nH]c2cc(-c3ccncn3)ccc12)C(NCCc1ccc(Cl)cc1)c1ccccc1 (single isomer, unassigned) [111 Isomer 2]; 6.25
CN(C)CCNC(=O)c1cccc2c(C(=O)C(NCCc3ccc(Cl)cc3Cl)c3ccccc3)c[nH]c12 (single isomer, unassigned) [149 Isomer 2]; 4.94

Exam item: Field request: pIC50 | item: N#Cc1ccc(CCNC(C(=O)c2c[nH]c3cc(C(=O)O)ccc23)c2ccccc2)cc1 (single isomer, unassigned) [155 Isomer 1]
Marked response: 5.65

Exam item: Could you tell me which pIC50 is on file for O=C(c1c[nH]c2cc(-n3ccnc3)ccc12)C(NCCc1ccc(F)cc1)c1ccccc1 (single isomer, unassigned) [117 Isomer 1] ?
Marked response: 6.08

Exam item: May I ask what pIC50 has been recorded for NS(=O)(=O)c1ccc(CCNC(C(=O)c2c[nH]c3cc(Cl)ccc23)c2ccccc2)cc1 (single isomer, unassigned) [13 Isomer 2] ?
Marked response: 5.79

Exam item: What value of measured pIC50 is listed for COc1ccc(CCNC(C(=O)c2c[nH]c3c(C)cccc23)c2ccccc2)cc1 (single isomer, unassigned) [80 Isomer 2] ?
Marked response: 5.99

Exam item: For Cn1cc(-c2ccc3c(C(=O)C(NCCc4ccc(S(N)(=O)=O)cc4)c4ccccc4)c[nH]c3c2)nn1 (single isomer, unassigned) [116 Isomer 2] , what is its reported pIC50?
Marked response: 6.38

Exam item: For Cn1cnc(-c2ccc3c(C(=O)[C@@H](NCCc4ccc(C(N)=O)cc4)c4ccccc4)c[nH]c3c2)c1 (single isomer, unassigned) [177 Isomer 2] , what is its reported pIC50?
Marked response: 6.08

Exam item: Param item = Cn1cc(-c2ccc3c(C(=O)C(NCCc4ccc(C(N)=O)cc4)c4ccccc4)c[nH]c3c2)nn1 (single isomer, unassigned) [180 Isomer 1] ; retrieve measured pIC50.
Marked response: 5.36

Exam item: Look up pIC50: C[C@@H](O)CNC(=O)c1ccc2c(C(=O)C(NCCc3ccc(C#N)cc3)c3ccccc3)c[nH]c2c1 (single isomer, unassigned) [173 Isomer 2]
Marked response: 7.68

Exam item: Find the recorded pIC50 belonging to Cc1cnc(-c2ccc3c(C(=O)C(NCCc4ccc(Cl)cc4)c4ccccc4)c[nH]c3c2)[nH]1 (single isomer, unassigned) [109 Isomer 1] and report it.
Marked response: 5.58

Exam item: // query pIC50 value for entry O=C(c1c[nH]c2ccccc12)C(NCCc1ccc(Cl)cc1)c1ccccn1 (racemic) [42 Racemic]
Marked response: 5.04

Exam item: Consider the compound shown here: Cn1cc(C(=O)C(NCCc2ccc(S(N)(=O)=O)cc2)c2ccccc2)c2ccccc21 (single isomer, unassigned) [17 Isomer 2] What is its recorded pIC50?
Marked response: 5.73

Exam item: Quick one: pIC50 for CC(Cc1ccc(Cl)cc1)NC(C(=O)c1c[nH]c2cc(-c3cnn(C)c3)ccc12)c1ccccc1 (single isomer, unassigned) [92 Isomer 1] ?
Marked response: 5.68

Exam item: So what's the measured pIC50 for this one? CC(C)(O)CNC(=O)c1ccc2c(C(=O)C(NCCc3ccc(C#N)cc3)c3ccccc3)c[nH]c2c1 (single isomer, unassigned) [161 Isomer 1]
Marked response: 5.47

Exam item: Which pIC50 is listed for O=C(c1c[nH]c2cc(-c3cccnc3)ccc12)C(NCCc1ccc(F)cc1)c1ccccc1 (single isomer, unassigned) [81 Isomer 1] ?
Marked response: 4.91

Exam item: Sample CN1CCN(c2ccc3c(C(=O)C(NCCc4ccc(C#N)cc4)c4ccccc4)c[nH]c3n2)CC1 (single isomer, unassigned) [121 Isomer 2] — what was its pIC50?
Marked response: 7.09
